- Experimental Details: Plasma clearance at 24 mg/Kg
- Assay type: ADME, organism-based
- Condition Details: mouse
Reported Endpoint: clearance (mL/min/kg)
State the answer as a number, implicitly in mL/min/kg.

[Q] Give the measured clearance of O=C1NC(=O)c2c1c1c3cc(F)ccc3[nH]c1c1c2c2cc(F)ccc2n1C1OC(CO)C(O)C(O)C1O (stereo unspecified) .
[A] 3.6

---

- Experimental Details: Volume of distribution of compound in plasma was determined at 5 mg/Kg
- Assay type: ADME, organism-based
- Condition Details: mouse, read-out: Vds
Reported Endpoint: Vd (L/kg)
State the answer as a number, implicitly in L/kg.

[Q] Give the measured Vd of O=C1NC(=O)c2c1c1c3cc(F)ccc3sc1c1c2c2cc(F)ccc2n1C1OC(CO)C(O)C(O)C1O (stereo unspecified) .
[A] 1.27

---

- Experimental Details: Plasma clearance at 5 mg/Kg
- Assay type: ADME, organism-based
- Condition Details: mouse
Reported Endpoint: clearance (mL/min/kg)
State the answer as a number, implicitly in mL/min/kg.

[Q] Give the measured clearance of O=C1NC(=O)c2c1c1c3cc(F)ccc3sc1c1c2c2cc(F)ccc2n1C1OC(CO)C(O)C(O)C1O (stereo unspecified) .
[A] 9.33

---

- Experimental Details: Half life of compound was determined in plasma of mice at 24 mg/Kg
- Format: ADME, organism-based
- Condition Details: mouse
Reported Endpoint: half-life (h)
State the answer as a number, implicitly in h.

[Q] Give the measured half-life of O=C1NC(=O)c2c1c1c3cc(F)ccc3[nH]c1c1c2c2cc(F)ccc2n1C1OC(CO)C(O)C(O)C1O (stereo unspecified) .
[A] 1.6

---

- Experimental Details: Volume of distribution of compound in plasma was determined at 24 mg/Kg
- Format: ADME, organism-based
- Condition Details: mouse, read-out: Vds
Reported Endpoint: Vd (L/kg)
State the answer as a number, implicitly in L/kg.

[Q] Give the measured Vd of O=C1NC(=O)c2c1c1c3cc(F)ccc3[nH]c1c1c2c2cc(F)ccc2n1C1OC(CO)C(O)C(O)C1O (stereo unspecified) .
[A] 0.1
